- test target: T1, recombinant human ROR1 extracellular domain (human, UniProt Q01973 30-406)
- T1 construct: biotinylated for the filter lifts; also called huROR1-ECD; human ROR1-ECD
- T1 sequence (Q01973 30-406 limits assumed): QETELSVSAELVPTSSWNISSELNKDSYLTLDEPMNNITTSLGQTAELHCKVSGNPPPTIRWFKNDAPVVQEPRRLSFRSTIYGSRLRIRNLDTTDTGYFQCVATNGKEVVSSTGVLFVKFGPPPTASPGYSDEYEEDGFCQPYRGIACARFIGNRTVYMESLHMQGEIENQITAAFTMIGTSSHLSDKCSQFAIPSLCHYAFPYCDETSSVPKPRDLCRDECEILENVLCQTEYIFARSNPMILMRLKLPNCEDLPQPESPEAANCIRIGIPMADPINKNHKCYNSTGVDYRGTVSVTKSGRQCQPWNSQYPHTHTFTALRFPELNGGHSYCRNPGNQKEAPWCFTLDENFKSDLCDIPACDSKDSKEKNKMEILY
- protocol details: ELISA, soluble Fab on coated huROR1-ECD
pKd: −log10 of the molar value.

{"columns": ["binder", "pKd"],
 "data": [
  ["Ab1 Fab variant L1 S30A (Fab, V domains shown, Fab) VH: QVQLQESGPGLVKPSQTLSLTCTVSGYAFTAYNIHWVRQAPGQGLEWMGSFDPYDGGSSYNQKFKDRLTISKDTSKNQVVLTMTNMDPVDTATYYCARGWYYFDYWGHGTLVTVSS VL: DIVMTQTPLSLPVTPGEPASISCRASKAISKYLAWYQQKPGQAPRLLIYSGSTLQSGIPPRFSGSGYGTDFTLTINNIESEDAAYYFCQQHDESPYTFGEGTKVEIK", 8.82],
  ["Ab1 Fab variant H2 G67K (Fab, V domains shown, Fab) VH: QVQLQESGPGLVKPSQTLSLTCTVSGYAFTAYNIHWVRQAPGQGLEWMGSFDPYDGKSSYNQKFKDRLTISKDTSKNQVVLTMTNMDPVDTATYYCARGWYYFDYWGHGTLVTVSS VL: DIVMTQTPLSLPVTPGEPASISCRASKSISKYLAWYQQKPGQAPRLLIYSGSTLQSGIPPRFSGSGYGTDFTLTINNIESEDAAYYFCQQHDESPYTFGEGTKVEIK", 8.64],
  ["Ab1 Fab variant L1 S32I (Fab, V domains shown, Fab) VH: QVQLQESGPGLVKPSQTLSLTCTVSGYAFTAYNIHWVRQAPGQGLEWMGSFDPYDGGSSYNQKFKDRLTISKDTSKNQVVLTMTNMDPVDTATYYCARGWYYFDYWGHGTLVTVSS VL: DIVMTQTPLSLPVTPGEPASISCRASKSIIKYLAWYQQKPGQAPRLLIYSGSTLQSGIPPRFSGSGYGTDFTLTINNIESEDAAYYFCQQHDESPYTFGEGTKVEIK", 8.72],
  ["Ab1 Fab variant H2 D76V (Fab, V domains shown, Fab) VH: QVQLQESGPGLVKPSQTLSLTCTVSGYAFTAYNIHWVRQAPGQGLEWMGSFDPYDGGSSYNQKFKVRLTISKDTSKNQVVLTMTNMDPVDTATYYCARGWYYFDYWGHGTLVTVSS VL: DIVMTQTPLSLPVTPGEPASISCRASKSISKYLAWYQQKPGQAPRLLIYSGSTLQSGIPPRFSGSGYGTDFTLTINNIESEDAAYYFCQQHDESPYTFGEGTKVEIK", 8.74],
  ["Ab1 Fab variant H1 F31V (Fab, V domains shown, Fab) VH: QVQLQESGPGLVKPSQTLSLTCTVSGYAVTAYNIHWVRQAPGQGLEWMGSFDPYDGGSSYNQKFKDRLTISKDTSKNQVVLTMTNMDPVDTATYYCARGWYYFDYWGHGTLVTVSS VL: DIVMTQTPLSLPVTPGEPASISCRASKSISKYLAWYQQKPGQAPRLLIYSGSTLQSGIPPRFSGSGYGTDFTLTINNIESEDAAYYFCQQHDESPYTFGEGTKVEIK", 8.08],
  ["Ab1 Fab variant H2 N71A (Fab, V domains shown, Fab) VH: QVQLQESGPGLVKPSQTLSLTCTVSGYAFTAYNIHWVRQAPGQGLEWMGSFDPYDGGSSYAQKFKDRLTISKDTSKNQVVLTMTNMDPVDTATYYCARGWYYFDYWGHGTLVTVSS VL: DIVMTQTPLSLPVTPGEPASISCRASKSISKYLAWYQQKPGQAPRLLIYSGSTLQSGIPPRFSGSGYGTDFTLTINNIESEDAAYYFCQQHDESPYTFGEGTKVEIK", 8.89],
  ["Ab1 Fab variant L1 A25P (Fab, V domains shown, Fab) VH: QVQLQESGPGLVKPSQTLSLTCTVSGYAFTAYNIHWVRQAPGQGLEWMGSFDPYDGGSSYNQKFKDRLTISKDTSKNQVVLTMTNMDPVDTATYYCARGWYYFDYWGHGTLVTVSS VL: DIVMTQTPLSLPVTPGEPASISCRPSKSISKYLAWYQQKPGQAPRLLIYSGSTLQSGIPPRFSGSGYGTDFTLTINNIESEDAAYYFCQQHDESPYTFGEGTKVEIK", 9.15],
  ["Ab1 Fab variant H2 F58V (Fab, V domains shown, Fab) VH: QVQLQESGPGLVKPSQTLSLTCTVSGYAFTAYNIHWVRQAPGQGLEWMGSVDPYDGGSSYNQKFKDRLTISKDTSKNQVVLTMTNMDPVDTATYYCARGWYYFDYWGHGTLVTVSS VL: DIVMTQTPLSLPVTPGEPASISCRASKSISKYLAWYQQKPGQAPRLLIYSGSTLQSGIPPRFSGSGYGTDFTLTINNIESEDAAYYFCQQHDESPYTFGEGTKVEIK", 9.05],
  ["Ab1 Fab variant H2 S68A (Fab, V domains shown, Fab) VH: QVQLQESGPGLVKPSQTLSLTCTVSGYAFTAYNIHWVRQAPGQGLEWMGSFDPYDGGASYNQKFKDRLTISKDTSKNQVVLTMTNMDPVDTATYYCARGWYYFDYWGHGTLVTVSS VL: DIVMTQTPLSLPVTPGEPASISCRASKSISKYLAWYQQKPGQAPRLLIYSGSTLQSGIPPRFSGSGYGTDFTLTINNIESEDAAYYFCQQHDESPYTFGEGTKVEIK", 8.92],
  ["Ab1 Fab variant H1 T32A (Fab, V domains shown, Fab) VH: QVQLQESGPGLVKPSQTLSLTCTVSGYAFAAYNIHWVRQAPGQGLEWMGSFDPYDGGSSYNQKFKDRLTISKDTSKNQVVLTMTNMDPVDTATYYCARGWYYFDYWGHGTLVTVSS VL: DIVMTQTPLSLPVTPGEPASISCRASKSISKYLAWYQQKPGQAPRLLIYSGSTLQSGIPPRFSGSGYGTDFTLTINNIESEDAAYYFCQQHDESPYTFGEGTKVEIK", 8.82]
]}

The values you see were collected from patent US20230021388A1.
